biological target: Human immunodeficiency virus type 1 reverse transcriptase (Human immunodeficiency virus 1, UniProt Q72547)
For each entry below, report its IC50 value.
Numbers only, in µM.

molecule | IC50, µM
Cc1cn(C2CC(N=[N+]=[N-])C(COP(=O)(O)CCCP(=O)(O)O)O2)c(=O)[nH]c1=O (stereo not drawn) | 39

Look at each molecule and report its IC50.
1. Cc1cn([C@H]2C[C@H](N=[N+]=[N-])[C@@H](CO[P@](=O)(O)O[P@](=O)(O)OP(=O)(O)O)O2)c(=O)[nH]c1=O [ZIDOVUDINE TRIPHOSPHATE]
2. Cc1cn(C2CC(N=[N+]=[N-])C(COP(=O)(O)CP(=O)(O)CP(=O)(O)O)O2)c(=O)[nH]c1=O (stereo not drawn)

1: 0.043; 2: 48

meta.source: ChEMBL document CHEMBL1150514
